# Measurement Protocol: Steady-state plasma pharmacokinetics of rifabutin and 25-O-desacetylrifabutin, alone and with lopinavir/ritonavir
# Stated Conditions: human, plasma, oral, 150 mg, AUCτ, rifabutin 150 mg OD with lopinavir/ritonavir; τ 24 h; median (range)
Experimental Endpoint: AUC (ng·h/mL)

{"Compound": "CO[C@H]1/C=C/O[C@@]2(C)Oc3c(C)c(O)c4c(c3C2=O)C2=NC3(CCN(CC(C)C)CC3)NC2=C(NC(=O)/C(C)=C\\C=C\\[C@H](C)[C@H](O)[C@@H](C)[C@@H](O)[C@@H](C)[C@H](OC(C)=O)[C@@H]1C)C4=O [Rifabutin]", "Experimental Endpoint": "AUC", "Value Measured": 7290}
